Assay: CCTE_Simmons_MITO_inhib_resp_rate: CCTE's HepG2 Seahorse XF Respirometric Screening Assay at Inhibited Respiratory State [full ETC block], Simmons Lab (AID 2284006)
Details: actives raise or lower the signal
Active and inactive are the calls of the source. Rule for the calls: active = hit-call score of the fitted dose curve at least 0.9, where 1 is the maximum; inactive = score below 0.9.
Hello, when you answer, please use one of the following outcomes: active, inactive

Exercise: Hey, what did the test say about "Cc1cc2c(cc1C(F)(F)F)N(C(=O)Nc1ccc(Oc3cccnc3C)nc1)CC2" ?
Key: inactive

Exercise: Answer briefly: the call reported for "Cc1cc(F)ccc1-c1cc(N2CC[C@@H](O)[C@H]2CO)ncc1N(C)C(=O)C(C)(C)c1cc(C(F)(F)F)cc(C(F)(F)F)c1" in this assay.
Key: inactive

Exercise: // outcome(item) with item = "CN(C)c1ccc(C(=C2C=CC(=[N+](C)C)C=C2)c2ccc(N(C)C)cc2)cc1"
Key: active

Exercise: Outcome? "Cc1c2ccccc2c(C)c2c1ccc1ccccc12"
Key: inactive

Exercise: Could you check what this test reported for CN1C(=O)N(c2ccccc2Br)Cc2cnc(Nc3ccc4c(c3)OCC(CO)O4)nc21 (centres undefined) ?
Key: inactive

Exercise: Could you please tell me the result logged for "CCN(Cc1cccnc1)C(=O)c1cccc(Cl)c1[C@]1(C)C(=O)N(Cc2ccc(OC)cc2OC)c2ccc(Cl)cc21" in this assay?
Key: inactive

Exercise: Which outcome did this test record for the compound "CC1(C)NC(=O)N(c2ccc([N+](=O)[O-])c(C(F)(F)F)c2)C1=O" ?
Key: inactive

Exercise: Check the results log: what was the call for "NCc1cccc(C2CCN(C(=O)c3ccc(C#Cc4ccccc4F)o3)CC2)c1" ?
Key: inactive

Exercise: Recorded test outcome, item OC12N=C(c3ccccc3)SC1Cc1cc(Cl)ccc12 (centres undefined)
Key: inactive

* * *

Read-out: CYP2C9 (gene 1559)
Experiment: LTEA_HepaRG_CYP2C9: Life Technologies and Expression Analysis (LTEA) Assay for CYP2C9 using HepaRG (AID 2283484)
Conditions: mRNA level, 48 h; actives raise or lower the signal
Calls of active or inactive are those of the source. Rule for the calls: active = hit-call score of the fitted dose curve at least 0.9, where 1 is the maximum; inactive = score below 0.9.
Tick one outcome: y (active), n (inactive)

Exercise: Outcome? "CCCCCCCC[Si](OCC)(OCC)OCC"
Key: n

Exercise: Record lookup: outcome of this test for "CCCC(=O)OCCC(C)C" ?
Key: n

Exercise: I'd appreciate the recorded outcome for "Oc1ccccc1" from this test.
Key: n

Exercise: GET /call?item= "CC[C@@H]1C[C@H](N(Cc2cc(C(F)(F)F)cc(C(F)(F)F)c2)C(C)=O)c2cc(C(F)(F)F)ccc2N1C(=O)OC(C)C" returns the recorded outcome of this test.
Key: n

Exercise: What did this assay record as the result for "CCO[Si](CCCNC(N)=O)(OCC)OCC" ?
Key: n

Exercise: // outcome(item) with item = "Cc1cn([C@H]2C[C@H](N=[N+]=[N-])[C@@H](CO)O2)c(=O)[nH]c1=O"
Key: n

Exercise: Dear colleague, could you share the recorded outcome for "NC(=O)c1nc(-c2cccc(-c3cc(F)ccc3OCC(F)(F)C(F)(F)F)c2)n[nH]1" when you have a moment?
Key: n

Exercise: Entry "Clc1ccccc1C(c1ccccc1)(c1ccccc1)n1ccnc1" : call = ?
Key: y

Exercise: # outcome recorded in this test, key = "CCCCCCCCCCCO"
Key: n

Exercise: Entry "CN1C(=O)CC[C@H]1c1cccnc1" : call = ?
Key: n

Exercise: What is the recorded call for this compound in the test? "CCOC(=O)O[C@H](C)OC(=O)c1ccc2c(c1)cc(C(=O)NC1CCN(C(C)C)CC1)n2Cc1cc(-c2ccc(Cl)s2)on1"
Key: n

Exercise: Kindly provide the recorded test outcome for the following compound: "CCCCCCCCCCCCO"
Key: n

Exercise: Write down the call the test reported for this compound. Item: "CC(=O)N1CCN(c2ccc(OC[C@H]3CO[C@](Cn4ccnc4)(c4ccc(Cl)cc4Cl)O3)cc2)CC1"
Key: y

Exercise: I'd appreciate the recorded outcome for "Cc1occc1C(=O)Nc1ccc(C(=O)N2CCC(F)(F)/C(=C\C(=O)N3CCC(N4CCCCC4)CC3)c3ccccc32)cc1" from this test.
Key: y

Exercise: Could you kindly confirm the outcome this assay logged for "Clc1cc(Cl)c2c(c1)N=C1CCCCCN1C2" ?
Key: n

Exercise: For "Cc1ccc(C(C)C)cc1" , which call appears in the assay record?
Key: n

Exercise: Dear all, I need the recorded test outcome for "CC[C@H](NC(=O)c1cc(F)ccc1NS(=O)(=O)c1cccc2cccnc12)c1ccccc1" , thank you.
Key: y

Exercise: GET /call?item= "CCCOC(=O)c1cc(O)c(O)c(O)c1" returns the recorded outcome of this test.
Key: n

Exercise: Status in this test for "CC(C)(c1cc(Br)c(O)c(Br)c1)c1cc(Br)c(O)c(Br)c1" ?
Key: n

Exercise: Fill in: this test's call for "Cc1cc(F)ccc1-c1cc(N2CC[C@@H](O)[C@H]2CO)ncc1N(C)C(=O)C(C)(C)c1cc(C(F)(F)F)cc(C(F)(F)F)c1" is ___
Key: n

Exercise: What classification did "CCCCOC(=O)CC(CC(=O)OCCCC)(OC(C)=O)C(=O)OCCCC" end up with in this test?
Key: n

Exercise: Which outcome did this test record for the compound "O=C(Nc1ccc(Cl)cc1)Nc1ccc(Cl)c(Cl)c1" ?
Key: y

Exercise: # fetch the recorded call for "COc1cc(C(=O)NC2CCN(C)CC2)ccc1Nc1ncc2c(n1)N(C1CCCC1)CC(F)(F)C(=O)N2C" here
Key: y
